experiment: inhibitors of hydroxyurea-induced Chk1 phosphorylation, primary screen, imaging, HeLa, phospho-Chk1 antibody, percent positive cells (AID 1186); conditions: hydroxyurea-induced phospho-Chk1 immunofluorescence imaging, higher = more signal
Records here are stratified by z-score; strata: class 1 = under -0.5, class 2 = from -0.5 up to -0.04, class 3 = -0.04 and over

Examples with answers:
MOLECULE | CATEGORY
C=CCOC(=O)[C@@H]1[C@H]2C(=O)O[C@H](c3ccccc3)[C@H](c3ccccc3)N2[C@H](c2ccc(OCCOC(=O)[C@@H]3C[C@@H]4C(=O)NCC(=O)N4[C@@H]3c3cccc(OCCO)c3)cc2)[C@@]12C(=O)Nc1ccc(I)cc12 | class 3
CC(C)CNC(=O)[C@@]1(c2ccc([N+](=O)[O-])cc2)CC(=O)N(CC23CC4CC(CC(C4)C2)C3)[C@@H]1c1ccc(CO)cc1 | class 2
COC(=O)[C@@]1(Cc2ccccc2)[C@H]2c3cc(C(=O)N4CCCC4)n(C)c3C[C@H]2CN1C(=O)c1ccccc1 | class 3

Enquiry: Could you place O=C1C=CC(=O)[C@@H]2CC(COc3ccccc3)=C3[C@@H](CCc4ccccc4)OB(O)C[C@@H]3[C@H]12 in its proper category? Many thanks.
Return: class 2

Enquiry: Same read-out for COc1ccc([Si](C)(C)[C@H]2[C@H](CC(=O)N(CCO)Cc3ccccc3)O[C@@]3(C(=O)N(Cc4cccc(N5CCC5=O)c4)c4ccccc43)[C@@H]2C)cc1 ?
Return: class 1

Enquiry: Same read-out for CC(C)NC(=O)[C@@H]1c2ccccc2C(=O)N(Cc2ccccc2)[C@H]1c1ccc(CO)cc1 ?
Return: class 2

Enquiry: Same read-out for O=C1N(CCS(=O)(=O)c2ccccc2)Cc2ccccc2[C@H]2OC(c3ccc(OCCCO)cc3)=N[C@@]12CCS(=O)(=O)c1ccccc1 ?
Return: class 2

Enquiry: Same read-out for COC(=O)C1=CC(CCCO)=CC(C2CC2)N(Cc2sc3ccccc3c2Cl)C=C1C(=O)OC (centres undefined) ?
Return: class 3

---

In this section, each of the compounds is paired with its reported z-score.
assay: E. coli growth modulation, two-sided OD650, primary screen, E. coli filamentation project, strain DRC41, 24 h (AID 1093); settings: OD650, 24 h, higher = more signal, called active from +8 up or from −8 down;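 also: MC1000 strain lacking acrAB efflux and sulA so SOS filamentation is blocked; test concentration not given here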
Activity calls are given as the source filed them.

COMPOUND | EXPERIMENTAL RESULT
CCOC(=O)C[C@H]1[C@H](OC(=O)Cc2ccc3c(c2)OCO3)[C@@H](NC(=O)c2ccc(-c3ccccc3)cc2)c2cc(OCCCO)ccc2N1C(=O)c1ccccc1 | 1.96 (inactive)
COC(=O)c1ccc(C(O)C2C=CC3C(=O)N(c4ccccc4)C(=O)C3N2Nc2ccc(C#N)cc2)o1 (centres undefined) | -1.07 (inactive)
C=C[C@H](C)[C@@H](O)c1ccc(O)c2ccccc12 | 0.149 (inactive)

Enquiry: Looking for the measured z-score of Cc1ccc(S[C@]2(C(=O)NCC(C)C)CC(=O)N(Cc3ccccc3Cl)[C@@H]2c2ccc(CO)cc2)cc1 , can you help?
Return: -0.0077 (inactive)

---

tested on: Neuregulin-1 EGF-like domain; experiment: binders of neuregulin-1 EGF-like domain, primary screen, biochemical, small-molecule microarray, 635 nm fluorescence (AID 1081); details: small-molecule microarray binding, higher = more signal;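 also: binding of the protein to compounds printed on small-molecule microarray slides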
In this section, each of the compounds is paired with its reported composite z-score.
Output: the number by itself.

Enquiry: Looking for the measured composite z-score of Cc1c(NC(=O)CC#N)c(=O)n(-c2ccccc2)n1C , can you help?
Return: 0.483

Enquiry: Same read-out for CCCN1C(=O)[C@]2(COC(c3ccc(OCCCO)cc3)=N2)Cc2ccccc21 ?
Return: 1.18

Enquiry: Same read-out for CCOC(=O)C[C@H]1[C@H](OC(=O)c2ccc(C(=O)c3ccccc3)cc2)[C@@H](NC(=O)C2CCCCC2)c2cc(OCCCO)ccc2N1C(=O)c1ccccc1 ?
Return: 0.95

Enquiry: Same read-out for CC(=O)Nc1cc(Br)ccc1C(=O)O ?
Return: 0.748

Enquiry: Same read-out for O=C(CS)NCCCCCCNC(=O)[C@H]1C[C@H]2C(=O)NCC(=O)N2[C@H]1c1ccc(O)cc1 ?
Return: 1.32
